- testSummary: Metabolic stability in knockout mouse liver microsomes
- Assay type: in vitro ADME
- runConditions: B6 Cyp2a(4/5)bgs-Null, mouse, liver microsomes from knockout mice, pH 7.4
endpoint: half-life at 1 μM (h)
Respond with the bare value in h.

So for Fc1cccc(Cl)c1CN1CCOCC1 , the logged half-life at 1 μM turned out to be 2.12

* * *

- tgt: CYP2C19 (Homo sapiens)
- Sequence (P33261 whole entry): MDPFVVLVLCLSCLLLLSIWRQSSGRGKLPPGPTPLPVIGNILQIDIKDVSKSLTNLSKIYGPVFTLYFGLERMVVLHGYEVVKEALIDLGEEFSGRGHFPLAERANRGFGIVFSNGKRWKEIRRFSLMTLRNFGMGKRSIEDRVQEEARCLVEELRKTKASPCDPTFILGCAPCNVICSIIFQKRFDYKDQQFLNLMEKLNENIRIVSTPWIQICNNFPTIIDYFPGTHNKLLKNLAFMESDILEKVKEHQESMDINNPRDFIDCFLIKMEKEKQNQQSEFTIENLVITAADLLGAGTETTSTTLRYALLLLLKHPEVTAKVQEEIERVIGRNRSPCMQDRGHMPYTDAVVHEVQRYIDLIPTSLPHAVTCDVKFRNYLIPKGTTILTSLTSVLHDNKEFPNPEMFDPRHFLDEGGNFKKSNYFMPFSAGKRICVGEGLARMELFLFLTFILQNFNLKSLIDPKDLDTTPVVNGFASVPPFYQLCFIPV
- testSummary: Metabolic stability phenotyping with recombinantly expressed CYPs
- Type: in vitro ADME
- runConditions: recombinant CYP2C19, pH 7.4
Each record here notes measured half-life at 1 μM.
Respond with the bare value in min.

[
  {
    "compound": "Fc1cccc(Cl)c1CN1CCOCC1 [Compound 7, 4-(2-chloro-6-fluorobenzyl)morpholine]",
    "half-life at 1 μM [min]": 18
  }
]

Record Clc1ccccc1CN1CCOCC1 [Compound 3, 4-(2-chlorobenzyl)morpholine] has CYP2C19 (Homo sapiens) half-life at 1 μM equal to 13

* * *

- tgt: human CYP2A13 (Homo sapiens)
- testSummary: Coumarin metabolism assay
endpoint: Ki (µM)
Respond with the bare value in µM.

[
  {
    "molecule": "Cc1cccc(Cl)c1CN1CCOCC1 [Compound 9, 4-(2-chloro-6-methylbenzyl)morpholine]",
    "Ki (µM)": 19.7
  }
]

So for c1ccc2c(CN3CCOCC3)cccc2c1 [Compound 15, 4-(naphthalen-1-ylmethyl)morpholine] , the logged Ki turned out to be 219

So for Clc1ccsc1CN1CCOCC1 [Compound 20] , the logged Ki turned out to be 54.7

So for CC(c1ccccc1Cl)N1CCOCC1 (centres unmarked) [Compound 23, 4-(1-(2-chlorophenyl)ethyl)morpholine] , the logged Ki turned out to be 15.9

So for Fc1cccc(Cl)c1CN1CCOCC1 [Compound 7, 4-(2-chloro-6-fluorobenzyl)morpholine] , the logged Ki turned out to be 38.1

So for Clc1ccccc1Cn1ccnc1 [Compound 16, 1-(2-chlorobenzyl)-1H-imidazole] , the logged Ki turned out to be 2.8

So for Clc1cccc(Cl)c1Cn1ccnc1 [Compound 17, 1-(2,6-dichlorobenzyl)-1H-imidazole] , the logged Ki turned out to be 2.1

So for Clc1cccc(CN2CCOCC2)c1Cl [Compound 12, 4-(2,3-dichlorobenzyl)morpholine] , the logged Ki turned out to be 88.9

* * *

- testSummary: Metabolic stability in liver microsomes
- Assay type: in vitro ADME, human
- runConditions: human, liver microsomes, pH 7.4
endpoint: half-life at 1 μM (min)
Respond with the bare value in min.

[
  {
    "smiles": "Clc1ccccc1CN1CCOCC1",
    "half-life at 1 μM, min": 22.9
  }
]

Now let's try a different one.
So for Fc1cccc(Cl)c1CN1CCOCC1 , the logged half-life at 1 μM turned out to be 7.6

* * *

Each record here notes measured half-life at 1 μM.
- testSummary: Metabolic stability in lung microsomes
- Assay type: in vitro ADME, male B6C2F1 mouse
- runConditions: male, B6C2F1, mouse, lung microsomes, pH 7.4
Respond with the bare value in min.

[
  {
    "compound": "Fc1cccc(Cl)c1CN1CCOCC1 [Compound 7, 4-(2-chloro-6-fluorobenzyl)morpholine]",
    "half-life at 1 μM / min": 1.3
  }
]

So for Clc1ccccc1CN1CCOCC1 [Compound 3, 4-(2-chlorobenzyl)morpholine] , the logged half-life at 1 μM turned out to be 1.6

* * *

- tgt: UniProt P11509
- testSummary: Coumarin metabolism assay
// NB: equality with 300 µM counts as Not satisfied; only Ki strictly below is Satisfied

Past entries and their recorded results:
[
  {
    "compound": "Cc1ccccc1CN1CCOCC1",
    "label": "Not satisfied"
  },
  {
    "compound": "Clc1cccc(CN2CCOCC2)c1Cl",
    "label": "Not satisfied"
  },
  {
    "compound": "c1ccc2c(CN3CCOCC3)cccc2c1",
    "label": "Not satisfied"
  },
  {
    "compound": "Clc1cccc(CN2CCOCC2)c1",
    "label": "Not satisfied"
  },
  {
    "compound": "CCc1ccccc1CN1CCOCC1",
    "label": "Not satisfied"
  },
  {
    "compound": "Clc1cccc(Cl)c1CN1CCOCC1",
    "label": "Satisfied"
  },
  {
    "compound": "Clc1ccc(CN2CCOCC2)c(Cl)c1",
    "label": "Not satisfied"
  },
  {
    "compound": "Clc1ccccc1Cn1ccnc1",
    "label": "Satisfied"
  }
]

Proceed to the following item.
Inquiry: Criterion: Ki strictly below 300 µM. Is it met by CN1CCN(Cc2c(Cl)cccc2Cl)CC1 ?
Reply text: Not satisfied

* * *

- testSummary: Aqueous solubility, shake-flask incubation method
- Type: physicochemical
- runConditions: phosphate-buffered saline, pH 7.4, aqueous buffer, thermodynamic from solid
endpoint: solubility at 24 h
Output should be the measured figure followed by the unit it is expressed in.

[
  {
    "smiles": "Clc1ccccc1CN1CCOCC1",
    "solubility at 24 h": "180 µM"
  }
]

Now let's try a different one.
So for Fc1cccc(Cl)c1CN1CCOCC1 , the logged solubility at 24 h turned out to be 184 µM

* * *

- testSummary: Metabolic stability in liver microsomes
- Type: in vitro ADME, male Sprague-Dawley rat
- runConditions: male, Sprague-Dawley, rat, liver microsomes, pH 7.4
endpoint: half-life at 1 μM (min)
Respond with the bare value in min.

[
  {
    "smiles": "Fc1cccc(Cl)c1CN1CCOCC1",
    "half-life at 1 μM [min]": 4
  }
]

So for Clc1ccccc1CN1CCOCC1 , the logged half-life at 1 μM turned out to be 4.7

* * *

- tgt: human CYP2A13 (Homo sapiens, UniProt Q16696)
- testSummary: Coumarin metabolism assay
- runConditions: read-out: Ki 2A13; coumarin substrate
endpoint: Ki

So for Clc1ccccc1CCN1CCOCC1 , the logged Ki turned out to be 604 µM

* * *

- testSummary: Metabolic stability in liver microsomes
- Format: in vitro ADME, male B6C2F1 mouse
- runConditions: male, B6C2F1, mouse, liver microsomes, pH 7.4
endpoint: microsomal CLint at 1 μM

[
  {
    "compound": "Fc1cccc(Cl)c1CN1CCOCC1 [Compound 7, 4-(2-chloro-6-fluorobenzyl)morpholine]",
    "microsomal CLint at 1 μM": "916 µL/min/mg"
  }
]

Now let's try a different one.
So for Clc1ccccc1CN1CCOCC1 [Compound 3, 4-(2-chlorobenzyl)morpholine] , the logged microsomal CLint at 1 μM turned out to be 687 µL/min/mg

* * *

- tgt: human CYP2A6 (Homo sapiens, UniProt P11509)
- testSummary: Coumarin metabolism assay
- runConditions: coumarin substrate
endpoint: Mode of inhibition 2A6

[
  {
    "smiles": "Clc1ccccc1CN1CCSCC1",
    "reportedValue": "mixed inhibition"
  },
  {
    "smiles": "c1ccc2c(CN3CCOCC3)cccc2c1",
    "reportedValue": "mixed inhibition"
  },
  {
    "smiles": "CCc1ccccc1CN1CCOCC1",
    "reportedValue": "mixed inhibition"
  }
]

* * *

- testSummary: Metabolic stability in knockout mouse liver microsomes
- Type: in vitro ADME
- runConditions: B6 Cyp2a(4/5)bgs-Null, mouse, liver microsomes from knockout mice, pH 7.4
endpoint: microsomal CLint at 1 μM (µL/min/mg)
Respond with the bare value in µL/min/mg.

So for Fc1cccc(Cl)c1CN1CCOCC1 , the logged microsomal CLint at 1 μM turned out to be 54.8

* * *

- testSummary: Metabolic stability in liver microsomes
- Type: in vitro ADME, human
- runConditions: human, liver microsomes, pH 7.4
endpoint: microsomal CLint at 1 μM
Output should be the measured figure followed by the unit it is expressed in.

[
  {
    "smiles": "Fc1cccc(Cl)c1CN1CCOCC1",
    "reportedValue": "91.4 µL/min/mg"
  }
]

Now let's try a different one.
So for Clc1ccccc1CN1CCOCC1 , the logged microsomal CLint at 1 μM turned out to be 30.3 µL/min/mg

* * *

- Test system: CYP2A6 / CYP2A13
- testSummary: Spectral ligand binding assay
- Set-up: species or system human
- runConditions: human
endpoint: selectivity ratio

So for CCc1ccccc1CN1CCOCC1 , the logged selectivity ratio turned out to be ≥ 128

* * *

Each record here notes measured half-life at 1 μM.
- tgt: CYP3A4 (Homo sapiens, UniProt P08684)
- Sequence (P08684 2-503 limits assumed): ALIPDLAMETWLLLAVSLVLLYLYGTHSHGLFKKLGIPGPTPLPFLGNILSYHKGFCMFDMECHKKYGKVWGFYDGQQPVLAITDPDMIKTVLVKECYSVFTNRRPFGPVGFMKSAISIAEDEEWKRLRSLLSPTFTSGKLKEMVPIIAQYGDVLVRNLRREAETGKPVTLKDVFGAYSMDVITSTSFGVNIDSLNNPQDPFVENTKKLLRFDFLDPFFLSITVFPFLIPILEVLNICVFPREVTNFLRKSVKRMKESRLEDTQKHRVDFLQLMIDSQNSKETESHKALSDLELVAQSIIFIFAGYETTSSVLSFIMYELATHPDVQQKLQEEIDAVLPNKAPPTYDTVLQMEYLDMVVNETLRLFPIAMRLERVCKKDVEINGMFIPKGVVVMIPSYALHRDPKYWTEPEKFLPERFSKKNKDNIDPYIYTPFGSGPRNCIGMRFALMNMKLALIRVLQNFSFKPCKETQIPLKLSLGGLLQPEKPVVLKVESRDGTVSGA
- testSummary: Metabolic stability phenotyping with recombinantly expressed CYPs
- Assay type: in vitro ADME
- runConditions: recombinant CYP3A4, pH 7.4
Respond with the bare value in min.

[
  {
    "smiles": "Clc1ccccc1CN1CCOCC1",
    "endpointUnit": "min",
    "half-life at 1 μM": 33
  }
]

Now let's try a different one.
So for Fc1cccc(Cl)c1CN1CCOCC1 , the logged half-life at 1 μM turned out to be 25

* * *

- Test system: CYP2A6 / CYP2A13
- testSummary: Coumarin metabolism assay
- runConditions: human, pH 7.4, probe coumarin (7-hydroxylation), Selectivity Ki (2A6)/ Ki (2A13), ratio of the CYP2A6 value to the CYP2A13 value
endpoint: selectivity ratio at 10 min

[
  {
    "molecule": "Cc1ccccc1CN1CCOCC1",
    "selectivity ratio at 10 min": "≥ 14.9"
  },
  {
    "molecule": "Clc1ccccc1CN1CCOCC1",
    "selectivity ratio at 10 min": "≥ 25"
  },
  {
    "molecule": "Clc1cccc(CN2CCOCC2)c1Cl",
    "selectivity ratio at 10 min": "~9"
  },
  {
    "molecule": "Clc1ccc(CN2CCOCC2)c(Cl)c1",
    "selectivity ratio at 10 min": "~9"
  },
  {
    "molecule": "Fc1ccccc1CN1CCOCC1",
    "selectivity ratio at 10 min": "≥ 2.6"
  }
]

Now let's try a different one.
Record CC1CN(Cc2cccc(Cl)c2Cl)CC(C)O1 (stereo not drawn) has CYP2A6 / CYP2A13 selectivity ratio at 10 min equal to ≥ 2.6
